- methodDescription: Metabolic stability in liver microsomes, cytosol, hepatocytes
- Format: in vitro ADME
- setupConditions: Gottingen, minipig, primary hepatocytes, Hepatocytes
readoutType: half-life at 10 μM

Data request: For the compound OC[C@@H](O)[C@@H](O)[C@@H](O)CO , give its reported half-life at 10 μM.
Data returned: > 6.07 h

----------
- methodDescription: Metabolic stability in liver microsomes, cytosol, hepatocytes
- Assay type: in vitro ADME
- setupConditions: Gottingen, minipig, primary hepatocytes, Hepatocytes
readoutType: CLint scaled at 10 μM

Data request: For the molecule OC[C@@H](O)[C@@H](O)[C@@H](O)CO , give its reported CLint scaled at 10 μM.
Data returned: < 9.16 mL/min/kg

----------
- methodDescription: PK comparison QD, BID, TID oral dosing
- Format: in vivo
- setupConditions: female, CD-1, mouse, plasma, po, 0.3 g/kg, PO 0.3 g/kg/dose TID, last dose
readoutType: AUC(0-inf) (ng·h/mL)
Express your answer in ng·h/mL, writing the number without its unit.

Data request: For the compound OC[C@@H](O)[C@@H](O)[C@@H](O)CO , give its reported AUC(0-inf).
Data returned: 40600

----------
- methodDescription: Single oral dose PK
- Type: in vivo
- setupConditions: Bama, minipig, plasma; single PO 0.3 g/kg, female; read-out: % F
readoutType: bioavailability (%)
Express your answer in %, writing the number without its unit.

Data request: For the compound OC[C@@H](O)[C@@H](O)[C@@H](O)CO [ribitol, (2R,3s,4S)-Pentane-1,2,3,4,5-pentol] , give its reported bioavailability.
Data returned: 65.3

----------
- methodDescription: Single oral dose PK
- Format: in vivo, CD-1 mouse
- setupConditions: CD-1, mouse, plasma; single PO 1.0 g/kg, male; read-out: % F
readoutType: bioavailability (%)
Express your answer in %, writing the number without its unit.

Data request: For the molecule OC[C@@H](O)[C@@H](O)[C@@H](O)CO , give its reported bioavailability.
Data returned: 30.5

----------
- methodDescription: Single intravenous dose PK
- Format: in vivo, Bama minipig
- setupConditions: Bama, minipig, plasma; IV 10 mg/kg, male; read-out: T1/2 (converted)
readoutType: half-life (min)
Express your answer in min, writing the number without its unit.

Data request: For the compound OC[C@@H](O)[C@@H](O)[C@@H](O)CO , give its reported half-life.
Data returned: 32.7

----------
- methodDescription: Single oral dose PK
- Assay type: in vivo
- setupConditions: Bama, minipig, plasma; single PO 1.0 g/kg, male; read-out: % F
readoutType: bioavailability (%)
Express your answer in %, writing the number without its unit.

Data request: For the compound OC[C@@H](O)[C@@H](O)[C@@H](O)CO [ribitol, (2R,3s,4S)-Pentane-1,2,3,4,5-pentol] , give its reported bioavailability.
Data returned: 69.4

----------
- methodDescription: Single oral dose PK
- Type: in vivo, CD-1 mouse
- setupConditions: CD-1, mouse, plasma; single PO 1.0 g/kg, male
readoutType: AUC(0-inf) (µg·h/mL)
Express your answer in µg·h/mL, writing the number without its unit.

Data request: For the compound OC[C@@H](O)[C@@H](O)[C@@H](O)CO , give its reported AUC(0-inf).
Data returned: 173

----------
- methodDescription: 28-day repeat-dose oral toxicokinetics
- Format: in vivo, CD-1 mouse
- setupConditions: both sexes, CD-1, mouse, plasma, po, 1 g/kg, 1.0 g/kg/dose BID, Day 1, Mean of sexes
readoutType: Cmax
Could you kindly put the unit after your number?

Data request: For the compound OC[C@@H](O)[C@@H](O)[C@@H](O)CO , give its reported Cmax.
Data returned: 257 µg/mL
